These entries and their values trace back to ChEMBL document CHEMBL1201862.

- Tested on: HOP-18
- Assay Remarks: NCI tumour cell line growth inhibition, 48 h
The source made the active and inactive calls. Rule as the data show it: active = GI50 up to about 1.1 µM and inactive = higher.
Please answer using one outcome listed in yes (1) = active, no (0) = inactive

// known answers, use as guide
[
  {
    "Compound": "Cc1c2cc[n+]([O-])cc2c(C)c2c1[nH]c1ccccc12",
    "Target Under Test": "HOP-18",
    "Category Label": "no (0)"
  },
  {
    "Compound": "N=C(N)NS(=O)(=O)c1ccc(Nc2c3ccccc3nc3c(C(=O)Nc4ccc(S(N)(=O)=O)cc4)ccc(Cl)c23)cc1",
    "Target Under Test": "HOP-18",
    "Category Label": "no (0)"
  }
]

Could you check what this test reported for O=C(Nc1ccc(Cl)cc1Cl)C(=O)C(C(=O)c1ccncc1)C1OC(=O)c2ccccc21 (stereo not drawn) ? no (0)

Any idea what this test logged for COC(=O)C(=O)C(C(=O)C1=NS(=O)(=O)c2cc(S(N)(=O)=O)c(Cl)cc2N1)c1nc2ccc(C(=O)c3ccccc3)cc2nc1O (stereo not drawn) ? no (0)

Status in this test for CCc1cccc(CC)c1NC(=O)/C(Cl)=C(/Cl)C(=O)O ? no (0)

Short answer needed: outcome of this test for CC(C)(C)c1cc2ccc(C(N)=O)cc2c(=O)[nH]1 ? no (0)

Test call, this compound: Cc1ccc(NC(=O)C(=O)CC(=O)c2ccccc2)cc1C no (0)
